These measurements were taken from patent EP4682166A1.

Target: T1, human NMI (N-myc Interacting protein), recombinant protein (human, UniProt Q13287 1-307, limits assumed)
T1 construct: Gene ID: 9111; also called hNMI; antigen
T1 sequence (looked up): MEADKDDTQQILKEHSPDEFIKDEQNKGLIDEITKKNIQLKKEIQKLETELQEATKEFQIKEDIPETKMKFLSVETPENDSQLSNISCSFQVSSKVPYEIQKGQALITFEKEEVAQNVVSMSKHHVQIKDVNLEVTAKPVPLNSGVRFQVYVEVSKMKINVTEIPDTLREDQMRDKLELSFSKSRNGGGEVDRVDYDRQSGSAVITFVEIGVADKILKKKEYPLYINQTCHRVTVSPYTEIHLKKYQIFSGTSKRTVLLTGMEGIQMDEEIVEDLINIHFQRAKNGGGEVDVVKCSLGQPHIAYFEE
Assay: sandwich ELISA; detection 94C4-1-biotin 0.5µg/mL; hNMI 390.625 pg/mL
QUANTITY: OD450 (OD450)
Field format: number, assumed OD450, no unit text.

Example entries begin here.
monoclonal antibody B-8 (antibody, V domains shown, Rabbit monoclonal antibody; also called B8-1) VH: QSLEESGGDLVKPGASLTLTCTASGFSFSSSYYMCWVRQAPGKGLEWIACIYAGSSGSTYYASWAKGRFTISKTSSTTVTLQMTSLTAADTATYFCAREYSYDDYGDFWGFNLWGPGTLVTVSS VL: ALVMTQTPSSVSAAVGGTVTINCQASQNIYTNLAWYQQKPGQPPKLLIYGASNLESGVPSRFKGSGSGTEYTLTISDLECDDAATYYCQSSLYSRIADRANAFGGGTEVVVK :: 0.178
monoclonal antibody 240B10-1 (antibody, V domains shown, Rabbit monoclonal antibody) VH: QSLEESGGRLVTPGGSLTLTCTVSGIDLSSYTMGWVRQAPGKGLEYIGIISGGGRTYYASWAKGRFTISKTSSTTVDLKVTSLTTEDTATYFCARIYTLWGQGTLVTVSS VL: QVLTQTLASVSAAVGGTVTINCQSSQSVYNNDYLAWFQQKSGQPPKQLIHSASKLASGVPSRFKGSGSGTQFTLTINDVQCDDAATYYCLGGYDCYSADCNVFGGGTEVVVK :: 0.268

// moving on: another record for OD450
Request: Quick one: OD450 of monoclonal antibody 98G10 (antibody, V domains shown, Rabbit monoclonal antibody) VH: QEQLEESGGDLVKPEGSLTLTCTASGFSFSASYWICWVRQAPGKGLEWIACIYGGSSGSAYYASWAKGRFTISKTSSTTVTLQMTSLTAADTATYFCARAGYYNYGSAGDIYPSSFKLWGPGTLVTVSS VL: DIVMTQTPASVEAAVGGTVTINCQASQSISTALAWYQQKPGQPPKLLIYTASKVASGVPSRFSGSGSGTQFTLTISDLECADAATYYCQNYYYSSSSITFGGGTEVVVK ?
Response: 0.219
